- Assay Comment: Determination of logD (1-octanol / phosphate buffer pH 7.4)
- Assay type: physicochemical
- Experimental Parameters: 1-octanol/phosphate buffer, pH 7.4, pH 7.4, 1-octanol/phosphate buffer; read-out: Log D, pH 7.4
Assign class 1 whenever logD does not fall below 3; assign class 0 whenever it does.

Answered examples (5):
>  <Compound>
N#CC[C@H]1CN(c2nc(OC[C@@]34CCCN3C[C@H](F)C4)nc3c(F)c(-c4cccc(Cl)c4C4CC4)ncc23)CCN1C(=O)/C=C/CN1C2COCC1C2 [Compound 278]

>  <Class Name>
class 1

$$$$
>  <Compound>
Cc1nccc(/C=C/C(=O)N2CCN(c3nc(OCC45CCCN4CCC5)nc4c3CCN(c3cccc5cccc(Cl)c35)C4)C[C@@H]2CC#N)n1 [Compound 202]

>  <Class Name>
class 1

$$$$
>  <Compound>
N#CC[C@H]1CN(c2nc(OC[C@@]34CCCN3C[C@H](F)C4)nc3c(F)c(-c4cccc5cccc(F)c45)ncc23)CCN1C(=O)/C=C/CN1[C@@H]2CC[C@H]1COC2 [Compound 94]

>  <Class Name>
class 1

$$$$
>  <Compound>
N#CC[C@H]1CN(c2nc(OC[C@@]34CCCN3C[C@H](F)C4)nc3c(F)c(-c4cccc5ccc(F)c(Cl)c45)ncc23)CCN1C(=O)/C=C/CN1CCC(F)(F)CC1 [Example 82]

>  <Class Name>
class 1

$$$$
>  <Compound>
N#CC[C@H]1CN(c2nc(OC[C@@]34CCCN3C[C@H](F)C4)nc3c(F)c(-c4cccc(Cl)c4C(F)(F)F)ncc23)CCN1C(=O)/C=C/CN1[C@@H]2CC[C@H]1COC2 [Compound 111]

>  <Class Name>
class 1

$$$$

Request: For this compound, is measured logD 3 or higher? C[C@H]1CN(C/C=C/C(=O)N2CCN(c3nc(OC[C@@]45CCCN4C[C@H](F)C5)nc4c(F)c(-c5cccc(Cl)c5C5CC5)ncc34)C[C@@H]2CC#N)C[C@H](C)O1 [Compound 302]
Response: class 1

Request: For this compound, is measured logD 3 or higher? CC(C)(C)c1noc(/C=C/C(=O)N2CCN(c3nc(OC[C@@]45CCCN4C[C@H](F)C5)nc4c3CCN(c3cccc5cccc(Cl)c35)C4)C[C@@H]2CC#N)n1 [Compound 31]
Response: class 1

Request: For this compound, is measured logD 3 or higher? N#CC[C@H]1CN(c2nc(OC[C@@]34CCCN3C[C@H](F)C4)nc3c(F)c(-c4cccc5cccc(Cl)c45)ncc23)CCN1C(=O)/C=C/CN1[C@@H]2CC[C@H]1COC2 [Example 87]
Response: class 1

Request: For this compound, is measured logD 3 or higher? CCc1c(F)ccc2cccc(-c3ncc4c(N5CCN(C(=O)/C=C/CN6[C@@H]7CC[C@H]6COC7)[C@@H](CC#N)C5)nc(OC[C@@]56CCCN5C[C@H](F)C6)nc4c3F)c12 [Compound 99]
Response: class 1

Request: For this compound, is measured logD 3 or higher? CCc1c(F)ccc2cccc(-c3ncc4c(N5CCN(C(=O)/C=C/CN6CCOCC6)[C@@H](CC#N)C5)nc(OC[C@@]56CCCN5C[C@H](F)C6)nc4c3F)c12 [Compound 226]
Response: class 0

Request: For this compound, is measured logD 3 or higher? N#CC[C@H]1CN(c2nc(OC[C@@]34CCCN3C[C@H](F)C4)nc3c(F)c(-c4cccc5ccc(F)c(Cl)c45)ncc23)CCN1C(=O)/C=C/CN1CC2(COC2)C1 [Compound 161]
Response: class 0

Request: For this compound, is measured logD 3 or higher? N#CC[C@H]1CN(c2nc(OCC34CCCN3CCC4)nc3c(F)c(-c4cccc5ccc(F)c(Cl)c45)ncc23)CCN1C(=O)/C=C/CN1C[C@@H]2C[C@H]1CO2 [Compound 182]
Response: class 0

Request: For this compound, is measured logD 3 or higher? N#CC[C@H]1CN(c2nc(OC[C@@]34CCCN3C[C@H](F)C4)nc3c(F)c(-c4cccc5cccc(Cl)c45)ncc23)CCN1C(=O)/C=C/CN1CCOC2CC21 (stereo partly shown) [Compound 274]
Response: class 1
